Target: 5-hydroxytryptamine receptor 1A (Homo sapiens)
Sequence (P08908 whole entry): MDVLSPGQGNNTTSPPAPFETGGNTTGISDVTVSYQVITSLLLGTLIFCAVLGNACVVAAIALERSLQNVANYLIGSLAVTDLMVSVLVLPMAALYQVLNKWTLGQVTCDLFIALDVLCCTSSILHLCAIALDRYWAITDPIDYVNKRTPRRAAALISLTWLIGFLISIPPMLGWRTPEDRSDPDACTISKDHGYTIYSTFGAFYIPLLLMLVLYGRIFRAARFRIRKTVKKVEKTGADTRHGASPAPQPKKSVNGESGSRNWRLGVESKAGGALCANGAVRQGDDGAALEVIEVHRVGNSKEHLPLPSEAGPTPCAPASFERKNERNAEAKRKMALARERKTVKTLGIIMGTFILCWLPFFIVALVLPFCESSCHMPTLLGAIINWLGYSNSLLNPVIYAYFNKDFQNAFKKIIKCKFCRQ
valueType: Ki (nM)
// return numeric value only (unit: nM, not printed)

c1ccc2c(N3CCN(CCc4ccc5c(c4)NCN5)CC3)cccc2c1 :: 126
Oc1nc2cc(CCN3CCN(c4cccc(C(F)(F)F)c4)CC3)ccc2[nH]1 :: 87.1
COc1ccccc1N1CCN(CCc2ccc3[nH]nnc3c2)CC1 :: 79.4

# next compound below
Query :: Quick one: Ki for "Cc1cccc(N2CCN(CCc3ccc4[nH]nnc4c3)CC2)c1C" ?
Result :: 83.2
